assayed_target: UniProt Q8TDU6
Sequence (Q8TDU6 whole entry): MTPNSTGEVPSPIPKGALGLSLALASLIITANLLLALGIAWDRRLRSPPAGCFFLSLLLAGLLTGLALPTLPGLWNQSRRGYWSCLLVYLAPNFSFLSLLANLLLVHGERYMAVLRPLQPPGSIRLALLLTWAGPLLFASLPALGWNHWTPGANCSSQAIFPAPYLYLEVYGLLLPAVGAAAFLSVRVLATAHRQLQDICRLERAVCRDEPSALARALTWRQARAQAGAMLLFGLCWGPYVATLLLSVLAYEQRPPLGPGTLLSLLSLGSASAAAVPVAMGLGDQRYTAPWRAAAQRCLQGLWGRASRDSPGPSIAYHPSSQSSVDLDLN
method: Human TGR5 cAMP production assay (hTGR5-CHO cells, DiscoveRx cAMP XS+ kit)
assay_context: luminescent cAMP assay, read-out: Human TGR5 Lum. cAMP Activity (EC50)
Assign EC50 to each entry below.

| compound | observed_value |
| --- | --- |
| N#Cc1ccc(CCNC(=O)[C@@H]2CCN2c2cc(N3CCC(CCC(=O)O)CC3)nc(C(F)(F)F)n2)cc1 [Compound 227] | < 100 nM |

Hi team, please reply with EC50 for each item in this list.
1. N#Cc1ccc(CCNC(=O)[C@@H]2CCN2c2cc(-c3ccc(CO)cc3)nc(C(F)(F)F)n2)cc1 [Compound 304]
2. N#Cc1ccc(CCNC(=O)[C@@H]2CCCN2c2cc(N3CCC(CCNS(=O)(=O)CCN)CC3)nc(C(F)(F)F)n2)cc1 [Compound 116]
3. O=C(NCCc1ccc(C(F)(F)F)cc1)[C@@H]1CCN1c1cc(N2CCC(CO)CC2)nc(C(F)(F)F)n1 [Compound 220]

["100 to 999 nM", "< 100 nM", "< 100 nM"]

----------
method: Comparison of PK in DIO mice and lean mice
Assay type: in vivo, mouse
assay_context: mouse, plasma, po, 10 mg/kg, Fasted Lean mice, oral (Table 58); read-out: AUC (0→4 h)
endpoint_name: AUC(0-t) (ng·h/mL)
Numbers only, in ng·h/mL.

Sure, the documented AUC(0-t) for `N#Cc1ccc(CCNC(=O)[C@@H]2CCN2c2cc(N3CCC(CCNC(=O)NCCC(=O)O)CC3)nc(C(F)(F)F)n2)cc1` is 18

----------
method: Comparison of PK in DIO mice and lean mice
Assay type: in vivo, mouse
assay_context: C57BL/6N, mouse, plasma, po, 10 mg/kg, Non-fasted Lean mice, oral (Table 58); read-out: AUC (0→4 h)
endpoint_name: AUC(0-t) (ng·h/mL)
Give bare numbers, in ng·h/mL.

Consider `N#Cc1ccc(CCNC(=O)[C@@H]2CCN2c2cc(N3CCC(CCNC(=O)NCCC(=O)O)CC3)nc(C(F)(F)F)n2)cc1` . Its measured AUC(0-t) is 2.9

----------
assayed_target: mouse TGR5 receptor (Mus musculus, UniProt Q80SS6)
Construct: host or cells: HEK293-EBNA (293 c18, ATCC CRL10852)
Sequence (Q80SS6 whole entry): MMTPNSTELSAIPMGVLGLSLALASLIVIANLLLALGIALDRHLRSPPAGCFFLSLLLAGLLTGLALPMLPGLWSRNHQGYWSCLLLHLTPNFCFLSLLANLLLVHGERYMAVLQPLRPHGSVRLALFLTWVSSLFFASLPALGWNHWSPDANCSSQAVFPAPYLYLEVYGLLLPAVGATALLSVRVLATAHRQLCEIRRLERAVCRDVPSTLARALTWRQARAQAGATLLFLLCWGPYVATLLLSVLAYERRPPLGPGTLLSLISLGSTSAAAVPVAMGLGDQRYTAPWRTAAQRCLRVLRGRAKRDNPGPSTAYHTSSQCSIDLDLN
method: Mouse TGR5 HTRF cAMP production assay (HEK293-EBNA cells, Cisbio cAMP HiRange kit)
Assay type: cell-based
assay_context: HEK293-EBNA cells overexpressing mouse TGR5, HTRF cAMP assay
Task for the reader: assign each of the following compounds its reported EC50.

| compound | EC50 |
| --- | --- |
| Cc1ccc(-c2cc(N3CCC[C@H]3C(=O)NCCc3ccc(C#N)cc3)nc(C(F)(F)F)n2)s1 [Compound 170] | 100 to 999 nM |
| CCOC(=O)CCN/C(=N\C#N)NCCC1CCN(c2cc(N3CC[C@H]3C(=O)NCCc3ccc(C#N)cc3)nc(C(F)(F)F)n2)CC1 [Compound 350] | < 100 nM |
| N#Cc1ccc(CCNC(=O)[C@@H]2CCCN2c2cc(N3CCC(CCCNC(=O)NCCS(=O)(=O)O)CC3)nc(C(F)(F)F)n2)cc1 [Compound 119] | < 100 nM |

Next compound, EC50 to be filled in.
get_value(item= N#Cc1ccc(CCNC(=O)[C@@H]2CCCN2c2cc(N3CCC(CCCC(=O)NCC(N)=O)CC3)nc(C(F)(F)F)n2)cc1 [Compound 68] , readout=EC50) returns < 100 nM
